Target: T1, ActRIIa receptor-Fc fusion (UniProt P27037 20-134, limits assumed)
T1 construct: BMP receptor-Fc fusion used at 5 ug/mL
T1 sequence (P27037 20-134 limits assumed): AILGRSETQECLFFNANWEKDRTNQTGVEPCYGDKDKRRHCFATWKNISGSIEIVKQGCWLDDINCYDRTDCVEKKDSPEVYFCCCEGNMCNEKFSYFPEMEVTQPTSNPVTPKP
Experiment: ELISA-like plate assay, captured BMP-7 from conditioned media, receptor-Fc detection
recorded endpoint: ActRIIa binding (relative to wild type = 1.0)

// below: answered binders
binder	val
BMP-7 variant F93A (ligand, In conditioned media; numbering on mature BMP-7) STGGKQRSQNRSKTPKNQEALRMASVAENSSSDQRQACKKHELYVSFRDLGWQDWIIAPEGYAAYYCEGECAFPLNSYMNATNHAIVQTLVHAINPETVPKPCCAPTQLNAISVLYFDDSSNVILKKYRNMVVRACGCH	0.11 relative to wild type
BMP-7 variant V26N (ligand, In conditioned media; numbering on mature BMP-7) STGGKQRSQNRSKTPKNQEALRMASNAENSSSDQRQACKKHELYVSFRDLGWQDWIIAPEGYAAYYCEGECAFPLNSYMNATNHAIVQTLVHFINPETVPKPCCAPTQLNAISVLYFDDSSNVILKKYRNMVVRACGCH	1 relative to wild type
BMP-7 variant M23S (ligand, In conditioned media; numbering on mature BMP-7) STGGKQRSQNRSKTPKNQEALRSASVAENSSSDQRQACKKHELYVSFRDLGWQDWIIAPEGYAAYYCEGECAFPLNSYMNATNHAIVQTLVHFINPETVPKPCCAPTQLNAISVLYFDDSSNVILKKYRNMVVRACGCH	2.2 relative to wild type

Could you now consider this next binder?
# input Tell me ActRIIa binding (relative to wild type = 1.0) reported for BMP-7 variant F117S (ligand, In conditioned media; numbering on mature BMP-7) STGGKQRSQNRSKTPKNQEALRMASVAENSSSDQRQACKKHELYVSFRDLGWQDWIIAPEGYAAYYCEGECAFPLNSYMNATNHAIVQTLVHFINPETVPKPCCAPTQLNAISVLYSDDSSNVILKKYRNMVVRACGCH
# output 0.11 relative to wild type
